Measured GI50 by item
Test system: MM.1S (human multiple myeloma cell)
Assay: In vitro activity test (CCK-8 cell growth inhibition)
Assay type: cell-based
Details: MM1.S, 48 hours incubation, read-out: MM.IS cell GI50 (μM) value
measured.endpoint: GI50 (µM)

1. CC(C)C[C@H](NC(=O)CNC(=O)c1cc(Cl)ccc1Br)B1OCCNCCO1 [drawing 42]; 0.00816
2. CC(C)C[C@H](NC(=O)CNC(=O)c1cc(Br)ccc1Cl)B1OCCNCCO1 [drawing 41]; 0.00713
3. CC(C)C[C@H](NC(=O)CNC(=O)c1cc(Br)ccc1Cl)B1OC(=O)c2ccccc2O1 [drawing 39]; 0.00209
4. CC(C)C[C@H](NC(=O)CNC(=O)c1cc(Br)ccc1Cl)B1OC(=O)[C@@H](c2ccccc2)O1 [drawing 40]; 0.00275
5. CC(C)C[C@H](NC(=O)CNC(=O)c1cc(Cl)ccc1Cl)B1OC(=O)[C@@H](c2ccccc2)O1 [drawing 43]; 0.0186

###

Recorded Female Suvival by entry
System: SD rats
Conditions: dose 4, 0.00277 mmol/kg single intragastric dose; 6 female rats; 14 days observation
Where a name gives a salt, the structure may show the parent alone.
measured.endpoint: Female Suvival

1) CC(C)C[C@H](NC(=O)CNC(=O)c1cc(Cl)ccc1Cl)B1OC(=O)[C@@H](c2ccccc2)O1; 0
2) CC(C)C[C@H](NC(=O)CNC(=O)c1cc(Br)ccc1Cl)B1OCCNCCO1; 0
3) CC(C)C[C@H](NC(=O)CNC(=O)c1cc(Br)ccc1Cl)B1OC(=O)[C@@H](c2ccccc2)O1; 4
4) CC(C)C[C@H](NC(=O)CNC(=O)c1cc(Cl)ccc1Cl)B1OC(=O)C(CC(=O)O)(CC(=O)O)O1 [Ixazomib (MLN9708), Ixazomib Citrate]; 0
5) CC(C)C[C@H](NC(=O)CNC(=O)c1cc(Cl)ccc1Cl)B(O)O; 0

###

Target: hERG potassium channel (Homo sapiens)
Sequence (Q12809 whole entry): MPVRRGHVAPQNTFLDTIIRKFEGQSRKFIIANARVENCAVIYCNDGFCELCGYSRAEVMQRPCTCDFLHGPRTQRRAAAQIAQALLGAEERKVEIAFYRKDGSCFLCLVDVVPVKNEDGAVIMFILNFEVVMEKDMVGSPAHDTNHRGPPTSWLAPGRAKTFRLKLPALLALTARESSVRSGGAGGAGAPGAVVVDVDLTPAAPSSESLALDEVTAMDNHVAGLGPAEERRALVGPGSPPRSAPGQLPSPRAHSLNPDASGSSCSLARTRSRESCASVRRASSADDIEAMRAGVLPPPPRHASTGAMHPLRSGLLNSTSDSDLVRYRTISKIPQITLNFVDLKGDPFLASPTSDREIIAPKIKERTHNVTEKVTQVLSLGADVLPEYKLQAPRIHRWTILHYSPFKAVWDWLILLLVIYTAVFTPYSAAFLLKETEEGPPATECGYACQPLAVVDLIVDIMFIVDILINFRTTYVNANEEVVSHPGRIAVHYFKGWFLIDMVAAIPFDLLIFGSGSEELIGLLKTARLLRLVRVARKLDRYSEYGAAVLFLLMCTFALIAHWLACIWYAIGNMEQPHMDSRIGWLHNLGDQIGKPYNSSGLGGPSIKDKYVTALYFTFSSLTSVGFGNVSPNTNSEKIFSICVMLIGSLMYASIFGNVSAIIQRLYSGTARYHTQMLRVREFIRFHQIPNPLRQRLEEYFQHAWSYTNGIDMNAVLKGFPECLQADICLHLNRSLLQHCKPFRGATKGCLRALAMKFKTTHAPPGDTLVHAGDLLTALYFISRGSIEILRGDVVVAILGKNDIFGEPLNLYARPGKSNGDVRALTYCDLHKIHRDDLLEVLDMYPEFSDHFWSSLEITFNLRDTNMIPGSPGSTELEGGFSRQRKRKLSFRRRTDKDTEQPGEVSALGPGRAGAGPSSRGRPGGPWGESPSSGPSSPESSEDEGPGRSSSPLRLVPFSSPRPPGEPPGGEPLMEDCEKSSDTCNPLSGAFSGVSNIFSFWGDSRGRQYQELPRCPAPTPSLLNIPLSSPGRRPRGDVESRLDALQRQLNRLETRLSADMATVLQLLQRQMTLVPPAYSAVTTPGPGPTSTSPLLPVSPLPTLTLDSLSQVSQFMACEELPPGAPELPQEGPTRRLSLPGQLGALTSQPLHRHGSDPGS
Assay: Inhibition test of hERG potassium channel of heart (patch clamp)
Conditions: patch clamp; n 3
Text: An inhibitory effect of the tested compound on hERG was judged by a general standard (Roche O. et al. ChemBioChem. 2002, 3:455-459.): When a hERG semi-inhibitory concentration of a medicine exceeded about 30 times of a peak concentration thereof in blood, the concentration was in a relatively safe range (Redfernelt al, Cardiovascular Research, 58, 32-45 (2003)).
measured.endpoint: IC50

1) CC(C)C[C@H](NC(=O)CNC(=O)c1cc(Br)ccc1Cl)B1OC(=O)c2ccccc2O1 [compound 8a]; > 30 µM
2) CC(C)C[C@H](NC(=O)CNC(=O)c1cc(Br)ccc1Cl)B1OC(=O)[C@@H](c2ccccc2)O1 [compound 8b]; > 30 µM

###

Test system: SD rats
Conditions: dose 2, 0.001662 mmol/kg single intragastric dose; 6 female rats; 14 days observation
Where a name gives a salt, the structure may show the parent alone.
Listed molecules paired with reported Female Death
measured.endpoint: Female Death

1. CC(C)C[C@H](NC(=O)CNC(=O)c1cc(Br)ccc1Cl)B1OCCNCCO1; 2
2. CC(C)C[C@H](NC(=O)CNC(=O)c1cc(Cl)ccc1Cl)B1OC(=O)C(CC(=O)O)(CC(=O)O)O1 [Ixazomib (MLN9708), Ixazomib Citrate]; 1
3. CC(C)C[C@H](NC(=O)CNC(=O)c1cc(Cl)ccc1Cl)B1OC(=O)[C@@H](c2ccccc2)O1; 1
4. CC(C)C[C@H](NC(=O)CNC(=O)c1cc(Cl)ccc1Cl)B(O)O; 2
5. CC(C)C[C@H](NC(=O)CNC(=O)c1cc(Br)ccc1Cl)B1OC(=O)[C@@H](c2ccccc2)O1; 0

###

System: SD rats
Conditions: dose 2, 0.001662 mmol/kg single intragastric dose; 6 female rats; 14 days observation
Structures can show the parent of a compound that is named as a salt.
We begin with a simple list: items and their reported Female Suvival.
measured.endpoint: Female Suvival

1) CC(C)C[C@H](NC(=O)CNC(=O)c1cc(Br)ccc1Cl)B1OCCNCCO1; 4
2) CC(C)C[C@H](NC(=O)CNC(=O)c1cc(Cl)ccc1Cl)B(O)O; 4
3) CC(C)C[C@H](NC(=O)CNC(=O)c1cc(Br)ccc1Cl)B1OC(=O)[C@@H](c2ccccc2)O1; 6
4) CC(C)C[C@H](NC(=O)CNC(=O)c1cc(Cl)ccc1Cl)B1OC(=O)C(CC(=O)O)(CC(=O)O)O1 [Ixazomib (MLN9708), Ixazomib Citrate]; 5
5) CC(C)C[C@H](NC(=O)CNC(=O)c1cc(Cl)ccc1Cl)B1OC(=O)[C@@H](c2ccccc2)O1; 5

###

Tested on: SD rats
Conditions: dose 4, 0.00277 mmol/kg single intragastric dose; 6 female rats; 14 days observation
Structures can show the parent of a compound that is named as a salt.
Each entry below carries its recorded Female Death.
measured.endpoint: Female Death

1. CC(C)C[C@H](NC(=O)CNC(=O)c1cc(Cl)ccc1Cl)B1OC(=O)C(CC(=O)O)(CC(=O)O)O1 [Ixazomib (MLN9708), Ixazomib Citrate]; 6
2. CC(C)C[C@H](NC(=O)CNC(=O)c1cc(Br)ccc1Cl)B1OCCNCCO1 [compound 8d]; 6
3. CC(C)C[C@H](NC(=O)CNC(=O)c1cc(Cl)ccc1Cl)B(O)O [Ixazomib (MLN2238), Ixazomib]; 6
4. CC(C)C[C@H](NC(=O)CNC(=O)c1cc(Cl)ccc1Cl)B1OC(=O)[C@@H](c2ccccc2)O1 [compound 8l]; 6
5. CC(C)C[C@H](NC(=O)CNC(=O)c1cc(Br)ccc1Cl)B1OC(=O)[C@@H](c2ccccc2)O1 [compound 8b]; 2

###

Test system: RPMI-8226 (human multiple myeloma cell)
Assay: In vitro activity test (CCK-8 cell growth inhibition)
Assay type: cell-based
Conditions: 48 hours incubation
Experimental: Cells RPMI-8226 (human multiple myeloma cell) and MM.1S (human multiple myeloma cell) were cultured in a RPMI 1640 medium containing 10% fetal bovine serum at 37[…] under 5% CO2 to a logarithmic growth phase. The cells were respectively inoculated into a 96-well culture plate in a quantity of 3×10^4/well. […]
measured.endpoint: GI50 (µM)

1. CC(C)C[C@H](NC(=O)CNC(=O)c1cc(Cl)ccc1Br)B1OCCNCCO1 [drawing 42]; 0.006
2. CC(C)C[C@H](NC(=O)CNC(=O)c1cc(Br)ccc1Cl)B1OCCNCCO1 [drawing 41]; 0.00651
3. CC(C)C[C@H](NC(=O)CNC(=O)c1cc(Br)ccc1Cl)B1OC(=O)[C@@H](c2ccccc2)O1 [drawing 40]; 0.00598
4. CC(C)C[C@H](NC(=O)CNC(=O)c1cc(Cl)ccc1Cl)B1OC(=O)[C@@H](c2ccccc2)O1 [drawing 43]; 0.0216
5. CC(C)C[C@H](NC(=O)CNC(=O)c1cc(Br)ccc1Cl)B1OC(=O)c2ccccc2O1 [drawing 39]; 0.00619

Data credit: patent US11414437B2
